Tested on: Glutamate receptor ionotropic, NMDA 3A (GRIN3A) ligand-binding domain
Protocol Description: binders of NR3A ligand-binding domain, primary screen, biophysical, differential scanning fluorimetry, uHTS (AID 1259313)
Setup Conditions: NR3A LBD differential scanning fluorimetry, at 25 µM, active compounds read high, 0% = protein alone, 100% = glycine-bound protein
About 8,500 (2.5%) of roughly 340,000 compounds were called active. What follows is part of a selection rich in actives, with near analogues and random picks from the rest.
This listing pairs molecules with measured Tm shift relative to glycine control.
Outcome Measure: Tm shift relative to glycine control (%)

Molecule: Cc1csc(NC(=O)C2CCN(S(=O)(=O)c3ccccc3)CC2)n1
Measured: 2.42
--
Molecule: CSc1ncccc1C(=O)Nc1ccc2c(c1)OCO2
Measured: -2.2
--
Molecule: NC1=NC(=O)S/C1=C\c1ccc(O)cc1
Measured: 32.2
--
Molecule: O=C(O)CSc1ccc(S(=O)(=O)N2CCCC2)cn1
Measured: 0.42
--
Molecule: Cc1c(C(=O)Nc2cccc(Cl)c2)cn2c(nc3ccccc32)c1C#N
Measured: 24.6
--
Molecule: O=C(N/N=C/c1ccc(OCc2ccccc2)cc1)c1ccc(O)cc1
Measured: 28.3
--
Molecule: O=C(O)c1ccc(/C=N/NC(=O)c2ccc(Br)cc2)cc1
Measured: -0.55
--
Molecule: CSc1ncccc1C(=O)Nc1nc2ccc(F)cc2s1
Measured: 11.6
--
Molecule: COC(=O)c1cn(CC(=O)NCc2cccs2)c2ccccc12
Measured: 11.7
--
Molecule: Cc1ccc(NC(=S)Nc2ccc(F)cc2)cc1
Measured: -4.68
--
Molecule: Cc1[nH]n(C)c(=O)c1N=Nc1ccc(S(C)(=O)=O)cc1
Measured: 1.71
--
Molecule: O=C1N=C(N2CCc3ccccc3C2)S/C1=C\c1ccc(O)cc1
Measured: -10.4
--
Molecule: Cc1ccc(NN=C2C(=O)OC(C)(C)OC2=O)c(C)c1
Measured: -1.21
--
Molecule: COc1ccc(C(C(=O)NCC2CCCO2)N(C(=O)Cn2nnc3ccccc32)c2ccc(NC(C)=O)cc2)cc1OC (stereo not given)
Measured: 1.93
--
Molecule: C/C(Cc1ccccc1)=N\NC(=O)CNC(=O)c1ccc2c(c1)OCCO2
Measured: 12.5
--
Molecule: CC(C)c1ccc(Nc2ncccc2C#N)cc1
Measured: -9.92
--
Molecule: O=C(COC(=O)c1ccccc1Cl)NC1CCCCCCC1
Measured: 1.11
--
Molecule: CCOC(=O)c1c(Cc2ccc(Cl)cc2)c[nH]c1C
Measured: -13.2
--
Molecule: CCOc1cc(CNn2c(C)nnc2SCC(=O)NC(C)(C)C)ccc1OCC(=O)NC(C)(C)C
Measured: -4.76
--
Molecule: S=C(Nc1ccccc1)Nc1ccc2ccccc2c1
Measured: 12.3
--
Molecule: Cc1cc(=O)oc2c1ccc1ccccc12
Measured: 0.49
--
Molecule: COCCCN1C(=O)c2ccc(C(=O)OCC(=O)NCc3ccccc3OC)cc2C1=O
Measured: -0.26
--
Molecule: OC(CNCC1CCCO1)Cn1c2ccc(Br)cc2c2cc(Br)ccc21 (stereo not given)
Measured: -15.9
--
Molecule: O=C(Cc1cccs1)N/N=C/c1ccc(OCc2ccccc2)cc1
Measured: 2.17
--
Molecule: CC1=C(C)CC(C(=O)NC(C)CCc2ccccc2)C(C(=O)O)C1 (stereo not given)
Measured: -2.66
--
Molecule: Cn1c(Nc2cccc(Cl)c2)nc2ccccc21
Measured: 8.46
--
Molecule: CN(C)C=NC(=O)c1cccn1-c1ncc(C(F)(F)F)cc1Cl
Measured: -1.59
--
Molecule: Cc1n[nH]c(=O)c2c(NC(=O)COC(=O)c3ncc(Cl)c(Cl)c3Cl)oc(C)c12
Measured: 4.91
--
Molecule: O=C(O)c1ccc([N+](=O)[O-])cc1Sc1ccsc1
Measured: 1.67
--
Molecule: CSc1ncccc1C(=O)Nc1ccc(C)cn1
Measured: 0.09
--
Molecule: Cc1ccc(S(=O)(=O)N2CCCCC2)cc1NC(=O)[C@@H]1CCCN1C(=O)c1cccs1
Measured: -0.43
--
Molecule: Cc1cccc([C@H]2[C@@H]3C=CC[C@@H](C)[C@@H]3C(=O)N2Cc2ccccc2)c1
Measured: 0.67
--
Molecule: COc1ccc(NC(=O)C2=CC(c3ccc(OC)c(OC)c3)=NS(=O)(=O)N2C)cc1
Measured: -11.9
--
Molecule: COCCNC(=O)Cn1cc(C(=O)c2cccs2)c2ccccc21
Measured: 4.81
--
Molecule: Cc1cccc([C@@H]2[C@@H]3C(=O)N(Cc4ccccc4)C(=O)[C@@H]3[C@]3(C)C(=O)N(c4ccc(Br)cc4)C(=O)N23)c1
Measured: -3.72
--
Molecule: CC1=NN(C(N)=S)C(=O)C1N=Nc1cc(Cl)ccc1Cl (stereo not given)
Measured: 8.72
--
Molecule: O=C(N/N=C/c1ccc(OC(=O)c2ccccc2Cl)cc1)c1ccc(O)cc1
Measured: 24.6
--
Molecule: COc1ccc(C(=O)Nc2cccc(NC(=O)c3ccc(OC)cc3OC)n2)c(OC)c1
Measured: 3.62
--
Molecule: CCOC(=O)NC(=O)CSc1nnc(SCCC(=O)O)s1
Measured: -2.83
--
Molecule: CC(C)(C)C(=O)Nc1ccc(C(=O)N/N=C/c2ccccc2OC(=O)c2ccc(Cl)cc2Cl)cc1
Measured: 2.16
--
Molecule: Cc1cnc(CN(C)C(=O)C2CCC(=O)N(CCc3cccc(F)c3)C2)[nH]1 (stereo not given)
Measured: -3.25
--
Molecule: COc1ccc(Nc2ccc3ccccc3c2)cc1
Measured: 1.95
--
Molecule: CCOC(=O)/C(C#N)=C\c1c(C)cc(C)c(COC(C)=O)c1C
Measured: -1.41
--
Molecule: COc1ccc2c(c1)C(=O)CC(c1ccccc1)O2 (stereo not given)
Measured: -1.87
--
Molecule: COc1cc(OC)cc(C(=O)NCC(=O)N2CCCCCCC2)c1
Measured: 3.22
